Assay: Permeability across apical side at pH 6.5 to basolateral side at pH 7.4 in human Caco2 cells assessed as compound recovery at 10 uM
Format: ADME, cell-based
Settings: caco-2, pH 6.5, 10 µM
Drug recovery values for the molecules below.
Your answer should be a plain number; it is taken to be in %.

Guide cases for Drug recovery, answers given:
CC(CCc1ccccc1)NCC(O)c1ccc(O)c(C(N)=O)c1 (centres undefined) [LABETALOL]    66
O=C(O)c1cc2ccc(N(Cc3ccccc3)Cc3ccccc3)cc2oc1=O    34
CC(C)NCC(O)COc1cccc2ccccc12 (centres undefined) [PROPRANOLOL]    67

Turning to the following molecule.
Notebook: COc1cc2c(c(OC)c1OC)-c1ccc(OC)c(=O)cc1[C@@H](NC(C)=O)CC2 [COLCHICINE] , Drug recovery read as 75
